Every entry's value here was drawn from ChEMBL document CHEMBL4261517.

testedTarget: Protein smoothened (Homo sapiens) (UniProt Q99835)
Sequence (Q99835 whole entry, the tested form may be a part): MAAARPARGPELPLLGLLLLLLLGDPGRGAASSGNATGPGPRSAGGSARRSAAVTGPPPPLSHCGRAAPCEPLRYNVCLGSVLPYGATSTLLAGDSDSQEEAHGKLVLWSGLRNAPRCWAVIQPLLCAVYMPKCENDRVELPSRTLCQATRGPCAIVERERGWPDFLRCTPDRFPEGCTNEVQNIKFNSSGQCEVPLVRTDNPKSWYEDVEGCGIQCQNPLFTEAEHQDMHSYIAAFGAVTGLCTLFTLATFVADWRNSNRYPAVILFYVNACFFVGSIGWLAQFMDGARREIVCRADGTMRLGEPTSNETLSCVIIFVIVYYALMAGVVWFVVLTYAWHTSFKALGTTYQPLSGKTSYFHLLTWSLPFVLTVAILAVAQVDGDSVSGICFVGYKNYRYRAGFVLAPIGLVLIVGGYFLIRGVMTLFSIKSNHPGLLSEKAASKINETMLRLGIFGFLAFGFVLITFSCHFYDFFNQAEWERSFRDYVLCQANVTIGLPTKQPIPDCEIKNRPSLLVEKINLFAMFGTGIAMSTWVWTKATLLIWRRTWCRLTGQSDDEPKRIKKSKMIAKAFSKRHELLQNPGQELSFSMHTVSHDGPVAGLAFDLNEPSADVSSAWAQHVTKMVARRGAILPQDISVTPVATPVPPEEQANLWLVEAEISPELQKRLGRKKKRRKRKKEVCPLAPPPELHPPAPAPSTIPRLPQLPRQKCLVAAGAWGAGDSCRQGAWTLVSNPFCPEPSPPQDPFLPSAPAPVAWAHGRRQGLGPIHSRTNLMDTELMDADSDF
protocol: Binding affinity to recombinant human N-terminal FLAG/His10-tagged/C-terminal His10-tagged flavodoxin-fused Smo receptor expressed in HEK293F cells assessed as melting temperature at 100 uM after 40 mins by CPM dye based spectrofluorometric method
Format: cell-based
Items are presented alongside their recorded Tm.
Answer with the value and then the unit.

Problem: Answer with reported Tm of `COC(=O)c1ccc(C(=O)N(C)C2CCN(c3nnc(-c4ccnn4C)c4ccccc34)CC2)cc1`
Solution: 60.3 °C

Problem: Report Tm, nothing else, for this compound: `CN(C(=O)c1ccc(Oc2ccccc2)cc1)C1CCN(c2nnc(-c3ccnn3C)c3ccccc23)CC1`
Solution: 59.6 °C

Problem: # return recorded Tm for input `CN(C)c1ccc(C(=O)N(C)C2CCN(c3nnc(-c4ccnn4C)c4ccccc34)CC2)cc1`
Solution: 58.5 °C

Problem: Please give measured Tm of the following entry: `CN(C(=O)c1ccc(S(N)(=O)=O)cc1)C1CCN(c2nnc(-c3ccnn3C)c3ccccc23)CC1`
Solution: 57.1 °C

Problem: Using known records, supply Tm for `CN(C(=O)c1ccc(N)cc1)C1CCN(c2nnc(-c3ccnn3C)c3ccccc23)CC1`
Solution: 58.2 °C

----------
Let's look at some compounds and their measured Tm.
testedTarget: Protein smoothened (Homo sapiens) (UniProt Q99835)
protocol: Binding affinity to recombinant human N-terminal FLAG/His10-tagged/C-terminal His10-tagged flavodoxin-fused Smo receptor expressed in HEK293F cells assessed as melting temperature at 100 uM after 40 mins by CPM dye based spectrofluorometric method
Format: cell-based

The examples below pair each entry with its known result.
# smilesString, testedTarget, Tm
rows = [
    ("CN(C(=O)c1ccc(B(O)O)cc1)C1CCN(c2nnc(-c3ccnn3C)c3ccccc23)CC1", "Protein smoothened (Homo sapiens) (UniProt Q99835)", "59.4 °C"),
    ("CN(C(=O)c1ccc([N+](=O)[O-])cc1)C1CCN(c2nnc(-c3ccnn3C)c3ccccc23)CC1", "Protein smoothened (Homo sapiens) (UniProt Q99835)", "61 °C"),
    ("CN(C(=O)c1ccc(C(=O)O)cc1)C1CCN(c2nnc(-c3ccnn3C)c3ccccc23)CC1", "Protein smoothened (Homo sapiens) (UniProt Q99835)", "56.8 °C"),
    ("CN(C(=O)c1ccc(C=O)cc1)C1CCN(c2nnc(-c3ccnn3C)c3ccccc23)CC1", "Protein smoothened (Homo sapiens) (UniProt Q99835)", "59 °C"),
    ("CN(C(=O)c1ccc(CC=O)cc1)C1CCN(c2nnc(-c3ccnn3C)c3ccccc23)CC1", "Protein smoothened (Homo sapiens) (UniProt Q99835)", "60.2 °C"),
]

Let's switch to this compound now.
Problem: Report Tm for `CN(C(=O)c1ccc(S(=O)(=O)O)cc1)C1CCN(c2nnc(-c3ccnn3C)c3ccccc23)CC1`
Solution: 59.4 °C

----------
Catalogue of compounds with associated Tm
testedTarget: Protein smoothened (Homo sapiens)
protocol: Binding affinity to recombinant human N-terminal FLAG/His10-tagged/C-terminal His10-tagged flavodoxin-fused Smo receptor expressed in HEK293F cells assessed as melting temperature at 100 uM after 40 mins by CPM dye based spectrofluorometric method
Format: cell-based
Value expressed in °C; do not type the unit.

Problem: Give Protein smoothened (Homo sapiens) Tm for the following compound: `CN(C(=O)c1ccc(NCC(=O)O)cc1)C1CCN(c2nnc(-c3ccnn3C)c3ccccc23)CC1`
Solution: 56.8

Problem: Send back Protein smoothened (Homo sapiens) Tm of `CN(C(=O)c1ccc(C(N)=O)cc1)C1CCN(c2nnc(-c3ccnn3C)c3ccccc23)CC1` only.
Solution: 59.7

Problem: # lookup: Protein smoothened (Homo sapiens) Tm, key = `CN(C(=O)c1ccc(F)cc1)C1CCN(c2nnc(-c3ccnn3C)c3ccccc23)CC1`
Solution: 59.1

Problem: Report Tm from Protein smoothened (Homo sapiens) testing of `CN(C(=O)c1ccc(S(C)(=O)=O)cc1)C1CCN(c2nnc(-c3ccnn3C)c3ccccc23)CC1`
Solution: 56.3

Problem: Given `CN(C(=O)c1ccc(OCc2ccccc2)cc1)C1CCN(c2nnc(-c3ccnn3C)c3ccccc23)CC1` , report its Tm on Protein smoothened (Homo sapiens).
Solution: 58.4
